Test system: T-47D spheroids with HUVEC/MSC, viability
Experiment: Anticancer human tumor T-47D cell line growth inhibition [PI3K];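 note: spheroids exposed to agents for seven days before reading; percent of DMSO vehicle control luminescence so 100% = untreated growth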
Conditions: second compound 0.316 µM; first compound 0.0316 µM; hits give low values
endpoint: viability, T/C (%)

* C[C@@H](NC(=O)c1ncnc(N)c1Cl)c1ncc(C(=O)Nc2cc(C(F)(F)F)c(Cl)cn2)s1 + Cc1nc(NC(=O)N2CCCC2C(N)=O)sc1-c1ccnc(C(C)(C)C(F)(F)F)c1 | 94.3
* CC(Cn1ccc(-c2ccc(C#N)c(Cl)c2)n1)NC(=O)c1cc(C(C)O)[nH]n1 (stereo unspecified) + CC(Nc1ccc2c(c1)OCCn1cc(N3C(=O)OCC3C(F)F)nc1-2)C(N)=O | 65.8
* CC(=O)c1c(C)c2cnc(Nc3ccc(N4CCNCC4)cn3)nc2n(C2CCCC2)c1=O + COc1c(OCCCN2CCOCC2)ccc2c3n(c(=NC(=O)c4cnc(N)nc4)nc12)CCN3 | 15
* CNC(=O)c1ccc(N2C(=S)N(c3ccc(C#N)c(C(F)(F)F)c3)C(=O)C2(C)C)cc1F + CC(Nc1ncnc2nc[nH]c12)c1cc2cccc(Cl)c2c(=O)n1-c1ccccc1 | 89
* C#Cc1c(F)ccc2cc(O)cc(-c3ncc4c(N5CC6CCC(C5)N6)nc(OCC56CCCN5CC(F)C6)nc4c3F)c12 (stereo unspecified) + CC(Nc1ccc2c(c1)OCCn1cc(N3C(=O)OCC3C(F)F)nc1-2)C(N)=O | 62.7
* Cn1nccc1Nc1nccc(-c2ccn(C(CO)c3ccc(Cl)c(F)c3)c(=O)c2)n1 (stereo unspecified) + COc1c(OCCCN2CCOCC2)ccc2c3n(c(=NC(=O)c4cnc(N)nc4)nc12)CCN3 | 20.7
* CC(C)NCC(C(=O)N1CCN(c2ncnc3c2C(C)CC3O)CC1)c1ccc(Cl)cc1 (stereo unspecified) + CC(Nc1ncnc2nc[nH]c12)c1cc2cccc(Cl)c2c(=O)n1-c1ccccc1 | 98.3
* CC(Cn1ccc(-c2ccc(C#N)c(Cl)c2)n1)NC(=O)c1cc(C(C)O)[nH]n1 (stereo unspecified) + Cc1nc(NC(=O)N2CCCC2C(N)=O)sc1-c1ccnc(C(C)(C)C(F)(F)F)c1 | 100
* C=CC(=O)N1CCN(c2nc(=O)n(-c3c(C)ccnc3C(C)C)c3nc(-c4c(O)cccc4F)c(F)cc23)C(C)C1 (stereo unspecified) + Cc1nc(NC(=O)N2CCCC2C(N)=O)sc1-c1ccnc(C(C)(C)C(F)(F)F)c1 | 83.8
* CC(Cn1ccc(-c2ccc(C#N)c(Cl)c2)n1)NC(=O)c1cc(C(C)O)[nH]n1 (stereo unspecified) + CC(Nc1ncnc2nc[nH]c12)c1cc2cccc(Cl)c2c(=O)n1-c1ccccc1 | 90.7
* C[C@@H](NC(=O)c1ncnc(N)c1Cl)c1ncc(C(=O)Nc2cc(C(F)(F)F)c(Cl)cn2)s1 + CC(Nc1ccc2c(c1)OCCn1cc(N3C(=O)OCC3C(F)F)nc1-2)C(N)=O | 69.4
* CC1(C)CCC(CN2CCN(c3ccc(C(=O)NS(=O)(=O)c4ccc(NCC5CCOCC5)c([N+](=O)[O-])c4)c(Oc4cnc5[nH]ccc5c4)c3)CC2)=C(c2ccc(Cl)cc2)C1 + Cc1nc(NC(=O)N2CCCC2C(N)=O)sc1-c1ccnc(C(C)(C)C(F)(F)F)c1 | 98.8
* C#Cc1c(F)ccc2cc(O)cc(-c3ncc4c(N5CC6CCC(C5)N6)nc(OCC56CCCN5CC(F)C6)nc4c3F)c12 (stereo unspecified) + COc1c(OCCCN2CCOCC2)ccc2c3n(c(=NC(=O)c4cnc(N)nc4)nc12)CCN3 | 20.2
* CCN1CCN(Cc2ccc(Nc3ncc(F)c(-c4cc(F)c5nc(C)n(C(C)C)c5c4)n3)nc2)CC1 + CC(Nc1ccc2c(c1)OCCn1cc(N3C(=O)OCC3C(F)F)nc1-2)C(N)=O | 51.2
* CC1(C)CCC(Nc2ncc(C(F)(F)F)c(-c3c[nH]c4c(P(C)(C)=O)c(C#N)ccc34)n2)CN1 (stereo unspecified) + COc1c(OCCCN2CCOCC2)ccc2c3n(c(=NC(=O)c4cnc(N)nc4)nc12)CCN3 | 20
* CNC(=O)c1ccc(N2C(=S)N(c3ccc(C#N)c(C(F)(F)F)c3)C(=O)C2(C)C)cc1F + CC(Nc1ccc2c(c1)OCCn1cc(N3C(=O)OCC3C(F)F)nc1-2)C(N)=O | 71.9
* CC1(C)CCC(CN2CCN(c3ccc(C(=O)NS(=O)(=O)c4ccc(NCC5CCOCC5)c([N+](=O)[O-])c4)c(Oc4cnc5[nH]ccc5c4)c3)CC2)=C(c2ccc(Cl)cc2)C1 + CC(Nc1ccc2c(c1)OCCn1cc(N3C(=O)OCC3C(F)F)nc1-2)C(N)=O | 65.5
* CCN1CCN(Cc2ccc(Nc3ncc(F)c(-c4cc(F)c5nc(C)n(C(C)C)c5c4)n3)nc2)CC1 + CC(Nc1ncnc2nc[nH]c12)c1cc2cccc(Cl)c2c(=O)n1-c1ccccc1 | 82.6
* CC(=O)c1c(C)c2cnc(Nc3ccc(N4CCNCC4)cn3)nc2n(C2CCCC2)c1=O + Cc1nc(NC(=O)N2CCCC2C(N)=O)sc1-c1ccnc(C(C)(C)C(F)(F)F)c1 | 95.2
* CCCS(=O)(=O)Nc1ccc(F)c(C(=O)c2c[nH]c3ncc(-c4ccc(Cl)cc4)cc23)c1F + CC(Nc1ccc2c(c1)OCCn1cc(N3C(=O)OCC3C(F)F)nc1-2)C(N)=O | 69.3
* CC1(C)CCC(Nc2ncc(C(F)(F)F)c(-c3c[nH]c4c(P(C)(C)=O)c(C#N)ccc34)n2)CN1 (stereo unspecified) + CC(Nc1ccc2c(c1)OCCn1cc(N3C(=O)OCC3C(F)F)nc1-2)C(N)=O | 53.1
